- System: U2OS
- assayMethodText: Multiplex assay against U2OS
- Format: toxicity, cell-based
- measurementContext: human, 24 h, 10 µM, compound concentration 10 uM, replicate 2
Outcome label depends on Total Cell Count relative to 80: at/above gives condition met, below gives condition not met.

Known results for compounds:
>>> category("S=C(NCCCc1c[nH]cn1)NCCCN(Cc1ccc(Cl)c(Cl)c1)c1ccc(Br)cn1")
"condition not met"
>>> category("COC(=N)c1nc2ccc3ncnc(Nc4ccc(OC)cc4F)c3c2s1")
"condition met"
>>> category("CCc1cccc(CC)c1NC(=O)c1nn(C)c2c1CCc1cnc(Nc3ccc(N4CCN(C)CC4)cc3OC)nc1-2")
"condition met"
>>> category("NC(=O)c1cccc(-c2cc(Nc3ccc(OC(F)(F)F)cc3)ncn2)c1")
"condition met"
>>> category("COc1ccc(-c2ccc3c(N4CCOCC4)nc(N4C[C@@H](C)O[C@@H](C)C4)nc3n2)cc1CO [Ku-0063794]")
"condition met"
>>> category("CCOC(=O)c1c(C)[nH]c2ccc3c(c12)CN1CCc2cc(OC)ccc2C1O3 (configuration not stated)")
"condition met"
>>> category("CCc1cccc(CC)c1NC(=O)c1nn(C)c2c1CCc1cnc(Nc3ccc(C(=O)NC4CCN(C)CC4)cc3OC(F)(F)F)nc1-2")
"condition not met"
>>> category("O=C1N/C(=N/c2ccccc2F)S/C1=C\\c1ccc(C(=O)O)cc1")
"condition not met"
>>> category("Cn1nc(C(F)(F)F)cc1-c1cnc(N2CCc3cc(S(=O)(=O)Nc4c(F)cc(Cl)cc4F)cc(N4CCCC4=O)c32)nc1 [TP-020]")
"condition met"
>>> category("Cc1cn(-c2cc(NC(=O)c3ccc(C)c(Nc4nccc(-c5cccnc5)n4)c3)cc(C(F)(F)F)c2)cn1 [NILOTINIB]")
"condition met"

Exam item: decide whether the reported Total Cell Count for CN(C)C(=O)C(CCN1CCC(O)(c2ccc(Cl)cc2)CC1)(c1ccccc1)c1ccccc1.Cl [LOPERAMIDE HYDROCHLORIDE] is at least 80. condition not met

Total Cell Count >= 80 for CCn1cc(-c2ccnc3[nH]c(-c4cccc(CN(C)C)c4)cc23)c(-c2ccc(NC(=O)N(C)C)cc2)n1 [GSK-1070916] ? condition not met

Given the entry Cl.O=c1c2cccn2c2ccccc2n1CCCN1CCC(c2ccc(Cl)cc2)CC1 , answer whether its Total Cell Count meets or surpasses 80. condition not met

Is it the case that CCCn1c(=O)c2[nH]c(-c3cnn(Cc4cccc(C(F)(F)F)c4)c3)nc2n(CC)c1=O [GS 6201] has Total Cell Count reaching or exceeding 80? condition met

###

Population Tubulin-Different-Phenotype (%) listing for selected molecules.
- System: U2OS
- assayMethodText: Multiplex assay against U2OS
- Assay type: toxicity, cell-based
- measurementContext: human, 12 h, 10 µM, compound concentration 10 uM, replicate 1
Your answer should be a plain number; it is taken to be in %.

What value of measured Population Tubulin-Different-Phenotype (%) is listed for COc1cc(N2CCN(C)CC2)ccc1Nc1ncc2c(n1)N(C)c1ccccc1C(=O)N2C ? 99

Endpoint output: Population Tubulin-Different-Phenotype (%) of CN1CCN(C(=O)C(C)(C)c2ccc(C(=O)Nc3cn4cc(-c5cc(C(C)(C)C)cc(C(C)(C)C)c5)ccc4n3)cc2)CC1 [T3-CLK-N] . Value? 34

Given O=C1N/C(=N/c2ccccc2F)S/C1=C\c1ccc(C(=O)O)cc1 , state its recorded Population Tubulin-Different-Phenotype (%). 8

Find the recorded Population Tubulin-Different-Phenotype (%) belonging to CCCn1c(=O)c2[nH]c(-c3cnn(Cc4cccc(C(F)(F)F)c4)c3)nc2n(CC)c1=O [GS 6201] and report it. 82

###

- Tested on: U2OS
- assayMethodText: Multiplex assay against U2OS
- Format: toxicity, cell-based
- measurementContext: human, 24 h, 1 µM, compound concentration 1 uM, replicate 2
As shown below, each of these molecules has a reported Population Apoptotic (%) value.
Write it as a number; the unit % goes unstated.

>>> recordedvalue("CCn1cc(-c2ccnc3[nH]c(-c4cccc(CN(C)C)c4)cc23)c(-c2ccc(NC(=O)N(C)C)cc2)n1")
40
>>> recordedvalue("O=C(Nc1ccc(-c2ccnc(Nc3ccc(N4CCOCC4)cc3)n2)cc1)[C@@H]1CCCN1")
60
>>> recordedvalue("Cc1cn(-c2cc(NC(=O)c3ccc(C)c(Nc4nccc(-c5cccnc5)n4)c3)cc(C(F)(F)F)c2)cn1")
40

I have this molecule here, COc1cc2ncnc(Nc3ccc(F)c(Cl)c3)c2cc1NC(=O)/C=C/CN1CCCCC1 [DACOMITINIB ANHYDROUS] , and I need its recorded Population Apoptotic (%). 75

###

- Test system: Fibroblast
- assayMethodText: Multiplex assay against human fibroblast
- Assay type: toxicity, cell-based
- measurementContext: 48 h, 10 µM, compound concentration 10 uM, replicate 2
Reported Population Apoptotic (%) values for a set of molecules
Enter your answer as a number in %; do not include the unit.

Take a look at these entries with their results.
>>> recordedvalue("O=C(Nc1ccc(Cl)cc1)Nc1cccc(-c2cccc(N3CCCC3)n2)c1")
95
>>> recordedvalue("CCOc1cc2ncc(C#N)c(Nc3ccc(OCc4ccccn4)c(Cl)c3)c2cc1NC(=O)/C=C/CN(C)C [NERATINIB]")
62
>>> recordedvalue("Cl.O=c1c2cccn2c2ccccc2n1CCCN1CCC(c2ccc(Cl)cc2)CC1")
56
>>> recordedvalue("CCCn1c(=O)c2[nH]c(-c3cnn(Cc4cccc(C(F)(F)F)c4)c3)nc2n(CC)c1=O [GS 6201]")
0
>>> recordedvalue("O=C(Cc1ccc(-c2ccc(OCCN3CCOCC3)cc2)cn1)NCc1ccccc1 [TIRBANIBULIN]")
66

Bench note: what Population Apoptotic (%) did O=C(Nc1ccc(-n2nc(-c3cccnc3)cc2C(F)(F)F)cn1)c1ccc(-c2ccccc2)c(F)c1 [BI 2049] show? 100

Quick one: Population Apoptotic (%) of CN1CCN(C(=O)C(C)(C)c2ccc(C(=O)Nc3cn4cc(-c5ccncc5)ccc4n3)cc2)CC1 [T3-CLK] ? 63

Consider the molecule CCn1c(=O)c(-c2ccc(-c3cncs3)cc2Cl)cc2cnc(Nc3ccc(N4CCN(C)CC4)cc3)nc21 and give its measured Population Apoptotic (%). 100

Item under review: CNc1cc(Oc2cc(C(=O)Nc3cc(N4CCN(C)CC4)cc(C(F)(F)F)c3)ccc2C)ncn1 . Reported Population Apoptotic (%)? 100

For the molecule CCOc1cc(C(=O)N2CCC(N3CCN(C)CC3)CC2)ccc1Nc1ncc2c(n1)N(C1CCCC1)c1ccccc1C(=O)N2C , what Population Apoptotic (%) is on record? 93

Bench note: what Population Apoptotic (%) did CN1CCC(=C2c3ccccc3CC(=O)c3sccc32)CC1.O=C(O)/C=C/C(=O)O [KETOTIFEN FUMARATE] show? 0

Reported Population Apoptotic (%), molecule CCCS(=O)(=O)c1nc(NC2CC2)cc(-c2ccc3c(ccn3C3CC(C)(C)NC(C)(C)C3)c2)n1 : ____ 75

###

- Tested on: HEK-293T
- assayMethodText: Multiplex assay against HEK293T
- Assay type: toxicity, cell-based
- measurementContext: human, 12 h, 10 µM, compound concentration 10 uM, replicate 1
// returns no unless Population Hoechst High Intensity Objects (%) is strictly below 10%, in which case yes

Some entries whose results are on file:
>>> category("COCC(=O)NC/C=C/c1ccc2ncnc(Nc3ccc(Oc4ccc(C)nc4)c(C)c3)c2c1 [CP-724714]")
"no"
>>> category("CCCS(=O)(=O)c1nc(NC2CC2)cc(-c2ccc3c(ccn3C3CC(C)(C)NC(C)(C)C3)c2)n1")
"yes"
>>> category("COc1ccc(S(=O)(=O)N(CCO)c2ccccc2CN(C)C/C=C/c2ccc(Cl)cc2)cc1.O=P(O)(O)O")
"yes"
>>> category("Cc1cc(C)c(S(=O)(=O)N(Cc2ccc(-c3cccc(S(C)(=O)=O)c3)cc2)Cc2ccc(C(F)(F)F)o2)c(C)c1")
"no"
>>> category("CCOc1cc2ncc(C#N)c(Nc3ccc(OCc4ccccn4)c(Cl)c3)c2cc1NC(=O)/C=C/CN(C)C [NERATINIB]")
"no"
>>> category("CCOC(=O)c1c(C)[nH]c2ccc3c(c12)CN1CCc2cc(OC)ccc2C1O3 (stereo not drawn)")
"no"

Now consider a different compound.
Does the reported Population Hoechst High Intensity Objects (%) of the following compound sit strictly below 10%? C=CCn1c(=O)c2cnc(Nc3ccc(N4CCN(C)CC4)cc3)nc2n1-c1cccc(C(C)(C)O)n1 [ADAVOSERTIB] no

###

- Test system: HEK-293T
- assayMethodText: Multiplex assay against HEK293T
- Assay type: toxicity, cell-based
- measurementContext: human, 12 h, 1 µM, compound concentration 1 uM, replicate 2
readout: Population Hoechst High Intensity Objects (%)
Answer format: numeric, % implied, no suffix.

Known results for compounds:
>>> recordedvalue("O=C(Nc1ccc(Cl)cc1)Nc1cccc(-c2cccc(N3CCCC3)n2)c1")
5
>>> recordedvalue("Cl.O=C(c1ccc(Nc2nccc(-c3cc4ccccc4s3)n2)cc1)N1CCC(N2CCCC2)CC1")
3
>>> recordedvalue("Cn1nc(C(F)(F)F)cc1-c1cnc(N2CCc3cc(S(=O)(=O)Nc4c(F)cc(Cl)cc4F)cc(N4CCCC4=O)c32)nc1 [TP-020]")
1
>>> recordedvalue("NC(=O)c1cccc(-c2cc(Nc3ccc(OC(F)(F)F)cc3)ncn2)c1")
1

Please find the next compound below.
Query: Population Hoechst High Intensity Objects (%); subject: CCNc1cc(N[C@H]2CC[C@H](O)CC2)nc(Nc2ccc3c(ccn3Cc3ccccc3)c2)n1 2
